# assay remarks: Pharmacokinetic experiments in rats (IV, oral suspension, oral solution)
# Assay type: in vivo
# condition label: male, rat, plasma, iv, 5 mg/kg, IV 5 mg/kg, 1 h, individual animals
property name: concentration at 1 h (ng/mL)
Kindly answer with a numeric value in ng/mL, unit omitted.

Which measured concentration at 1 h value corresponds to `O=C(NNc1nc2cc(F)ccc2n2cccc12)c1cnccn1.O=C(O)C(=O)O` ? 288

----------
# assay remarks: Pharmacokinetic experiments in rats (IV, oral suspension, oral solution)
# Assay type: in vivo
# condition label: male, rat, plasma, po, 20 mg/kg, Group 5, PO-Solution 20 mg/kg, Mean N=3, read-out: T ½ (converted)
property name: half-life (h)
Report as a plain number; the unit h is understood.

Name the recorded half-life for O=C(NNc1nc2cc(F)ccc2n2cccc12)c1cnccn1.O=C(O)C(=O)O [NVX-412] . 1.4

----------
# assay remarks: Pharmacokinetic experiments in rats (IV, oral suspension, oral solution)
# Format: in vivo
# condition label: male, rat, plasma, oral, 20 mg/kg, Group 5, PO-Solution 20 mg/kg, 0.5 hr, individual animals
property name: concentration at 0.5 h (ng/mL)
Write the number in ng/mL without appending the unit.

Recorded concentration at 0.5 h of `O=C(NNc1nc2cc(F)ccc2n2cccc12)c1cnccn1.O=C(O)C(=O)O` , please. 732

----------
# assay remarks: Pharmacokinetic experiments in rats (IV, oral suspension, oral solution)
# Format: in vivo
# condition label: male, rat, plasma, iv, 5 mg/kg, IV 5 mg/kg, Mean of 3, read-out: Vss
property name: Vd (L/kg)
Value expressed in L/kg; do not type the unit.

Entry under review: `O=C(NNc1nc2cc(F)ccc2n2cccc12)c1cnccn1.O=C(O)C(=O)O` . Reported Vd? 3.98

----------
# assay remarks: Pharmacokinetic experiments in rats (IV, oral suspension, oral solution)
# Type: in vivo
# condition label: male, rat, plasma, po, 20 mg/kg, Group 3, PO-Suspension 20 mg/kg, individual animals, read-out: T ½ (converted)
# Method: The oral suspension formulation was prepared by suspending the test article in 5% PEG-200/95% of a 0.5% solution of methylcellulose. The concentration of the test article was such that a dosing volume of 10 mL/kg delivered the intended dose level. […] The whole blood samples were centrifuged (˜1500×g) for a minimum of 10 minutes in a refrigerated centrifuge (set at ˜5° C.). […] The plasma samples were analyzed by LC-MS/MS to determine the plasma concentrations of NVX-144 and NVX-412. […]
property name: half-life (h)
Express your answer in h, writing the number without its unit.

What does the data say about its half-life? Entry: O=C(NNc1nc2cc(F)ccc2n2cccc12)c1cnccn1.O=C(O)C(=O)O [NVX-412] 1.28

----------
# assay remarks: Pharmacokinetic experiments in rats (IV, oral suspension, oral solution)
# Assay type: in vivo
# condition label: male, rat, plasma, po, 20 mg/kg, Group 5, PO-Solution 20 mg/kg, individual animals, read-out: Cmax
# Experimental: The oral suspension formulation was prepared by suspending the test article in 5% PEG-200/95% of a 0.5% solution of methylcellulose. The concentration of the test article was such that a dosing volume of 10 mL/kg delivered the intended dose level. […] The whole blood samples were centrifuged (˜1500×g) for a minimum of 10 minutes in a refrigerated centrifuge (set at ˜5° C.). […] The plasma samples were analyzed by LC-MS/MS to determine the plasma concentrations of NVX-144 and NVX-412. […]
property name: Cmax (ng/mL)
# value in ng/mL; strip the unit string

# lookup: Cmax of `O=C(NNc1nc2cc(F)ccc2n2cccc12)c1cnccn1.O=C(O)C(=O)O` 732
